These entries and their values trace back to BindingDB's records for doi:10.1016/s0960-894x(01)00654-0.

biological target: C-C chemokine receptor type 5 (Homo sapiens, UniProt P51681); test: ChEBML_39507
Sequence (P51681 whole entry): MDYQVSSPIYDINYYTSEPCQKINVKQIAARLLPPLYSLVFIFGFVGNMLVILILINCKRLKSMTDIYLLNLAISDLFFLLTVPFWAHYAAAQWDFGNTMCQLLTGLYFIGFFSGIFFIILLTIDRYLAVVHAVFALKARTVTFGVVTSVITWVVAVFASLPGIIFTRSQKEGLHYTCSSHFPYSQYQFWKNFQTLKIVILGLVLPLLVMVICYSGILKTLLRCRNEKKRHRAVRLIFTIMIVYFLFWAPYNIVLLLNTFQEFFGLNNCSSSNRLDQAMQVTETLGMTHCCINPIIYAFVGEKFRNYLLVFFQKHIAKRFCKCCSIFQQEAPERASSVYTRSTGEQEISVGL
assay.metric: IC50 (nM)
Give bare numbers, in nM.

**Query** Return the recorded IC50 value; entry: O=c1[nH]c(Cc2c[nH]c3ccccc23)c(O)n1CC(CCN1CCC(c2ccccc2)CC1)c1cccc(Cl)c1 (stereo unspecified)
**Result** 25
